method_notes: SAD study: plasma pharmacokinetics after single oral TS-134
Format: in vivo, human
conditions: both, human, plasma, oral, 10 mg, t1/2, mean (CV[%]); SAD Parts A and C; 10 mg fasted (n = 4)
quantity_kind: half-life

>  <compound>
N[C@]1(C(=O)O)[C@H]2[C@@H](C[C@@H]1F)[C@@H]2C(=O)O [MGS0008]

>  <result>
8.41 h

$$$$

* * *

method_notes: MAD study: plasma pharmacokinetics after multiple oral dose titration of TS-134
Format: in vivo, human
conditions: both, human, plasma, oral, 60 mg, t1/2, mean (CV[%]), plasma; MAD Day 14, fed; 60 mg (n = 8)
quantity_kind: half-life (h)

>  <item_smiles>
N[C@]1(C(=O)O)[C@H]2[C@@H](C[C@@H]1F)[C@@H]2C(=O)O

>  <quantity_kind>
half-life

>  <quantitative_readout>
9.43

$$$$

* * *

method_notes: MAD study: plasma pharmacokinetics after multiple oral dose titration of TS-134
Type: in vivo, human
conditions: both, human, plasma, oral, 10 mg, AUC0‐tau, mean (CV[%]), plasma; MAD Day 14, fed; 10 mg (n = 8)

>  <item_smiles>
N[C@]1(C(=O)O)[C@H]2[C@@H](C[C@@H]1F)[C@@H]2C(=O)O

>  <AUC>
475 ng·h/mL

$$$$

* * *

method_notes: MAD study: urinary excretion
Format: in vivo, human
conditions: both, human, urine, oral, 60 mg, CLr, mean (CV[%]), MAD Day 14; 60 mg (n = 8)
quantity_kind: CL renal

>  <item_smiles>
N[C@]1(C(=O)O)[C@H]2[C@@H](C[C@@H]1F)[C@@H]2C(=O)O

>  <result>
78.7 mL/min

$$$$

* * *

method_notes: SAD study: urinary excretion
Format: in vivo, human
conditions: both, human, urine and plasma, oral, renal clearance, range, SAD and MAD studies

>  <item_smiles>
N[C@]1(C(=O)O)[C@H]2[C@@H](C[C@@H]1F)[C@@H]2C(=O)O

>  <CL renal>
70.6 to 103 mL/min

$$$$

* * *

method_notes: SAD study: plasma pharmacokinetics after single oral TS-134
Format: in vivo, human
conditions: both, human, plasma, oral, 20 mg, tmax, median; SAD Parts A and C; 20 mg fasted (n = 3)

>  <compound>
N[C@]1(C(=O)O)[C@H]2[C@@H](C[C@@H]1F)[C@@H]2C(=O)O [MGS0008]

>  <Tmax [h]>
3

$$$$

* * *

method_notes: SAD study: urinary excretion
Type: in vivo, human
conditions: both, human, urine, oral, 10 mg, CLr, mean (CV[%]), SAD Parts A and C; 10 mg fed (n = 3)

>  <item_smiles>
N[C@]1(C(=O)O)[C@H]2[C@@H](C[C@@H]1F)[C@@H]2C(=O)O

>  <CL renal, mL/min>
103

$$$$

* * *

method_notes: MAD study: plasma pharmacokinetics after multiple oral dose titration of TS-134
Type: in vivo, human
conditions: both, human, plasma, oral, 20 mg, t1/2, mean (CV[%]), plasma; MAD Day 14, fed; 20 mg (n = 8)

>  <compound>
N[C@]1(C(=O)O)[C@H]2[C@@H](C[C@@H]1F)[C@@H]2C(=O)O [MGS0008]

>  <half-life / min>
624

$$$$

* * *

method_notes: SAD study: plasma pharmacokinetics after single oral TS-134
Assay type: in vivo, human
conditions: both, human, plasma, oral, 10 mg, AUC0‐inf, mean (CV[%]); SAD Parts A and C; 10 mg fasted (n = 4)
quantity_kind: AUC (ng·h/mL)

>  <item_smiles>
N[C@]1(C(=O)O)[C@H]2[C@@H](C[C@@H]1F)[C@@H]2C(=O)O

>  <quantity_kind>
AUC

>  <unit_abbrev>
ng·h/mL

>  <quantitative_readout>
535

$$$$
